Source of measurements: the domain aggregation screens of Martell et al. (2025)

Experiment: soluble fraction after stress (log2 fold change); higher = more stays soluble; pooled small domains, quantitative proteomics
Conditions: stress: pH 4
observed-property: soluble fraction (log2)

Task: Which value of soluble fraction (log2) has been reported for "HMQISDAGALLDAVRRVLAENPAQVEQFRAGKEKVMGFLVGQVMRATGGKANPQMLNDVLREELS" in the records?
Result: 0.198

Task: Next sequence up: "HMNVNEIREMYPEGTQIVLTEMRGENQMPYGLKGTVKFVDDAGQIHMKWENGSSLALNINEDTFEKVE"
Result: -0.471

Task: Next sequence up: "HMGKEDISQINKLYQNQILDYETYIDTLNSFNIDTKSKDFKNLLDLFIKKSISFETFNKGIINIHNKS"
Result: -1.01

Task: Next sequence up: "HMGQISDDGALKKLASEVLAANPQALADWKAGKQQAVSFLVGQAMKASKGRGDAALLGELIRAALD"
Result: 0.0477

Task: Next sequence up: "HMQPASPELNNQEKKVLQALPENEVIHIDELSDKIQIPVGELLTVLLSLEMKETVIQEPGKFFRRR"
Result: -0.886
